- Test system: FTC133 cells
- experiment-notes: MTT cell viability assay, FTC133
- Format: cell-based, Human
- protocol-conditions: Homo sapiens, FTC-133, 72-hours of exposure, 1% FBS, mean±standard deviation (n=3), read-out: IC50 for reducing viability of FTC133 cells versus DMSO control
- Experimental: Human thyroid cancer BCPAP, TPC1, and FTC133 cell lines were the generous gifts of Drs. […] The effect of OSU-03012 and its derivatives on cell viability was assessed by using the 3-(4,5-dimethylthiazol-2-yl)-2,5-diphenyl-2H-tetrazolium bromide (MTT) assay. […] Supernatants were removed from the wells, the reduced MTT dye was solubilized in 100 μL of solution C (12 ml of 1N HCl in 300 mL of isopropanol), and absorbance at 570 nm was determined on a microplate reader. […]
Records here are stratified by IC50; strata: low interval: < 4 µM; middle interval: ≥ 4 µM and < 5 µM; high interval: ≥ 5 µM

1. NCC(=O)Nc1ccc(-n2nc(CO)cc2-c2ccc3ccc4ccccc4c3c2)cc1 :: middle interval
2. CCNC(=O)c1cc(-c2ccc3ccc4ccccc4c3c2)n(-c2ccc(NC(=O)CN)cc2)n1 :: middle interval
3. NCC(=O)Nc1ccc(-n2nc(CO)cc2-c2ccc3c(ccc4ccccc43)c2)cc1 :: high interval
4. CNC(=O)c1cc(-c2ccc3c(ccc4ccccc43)c2)n(-c2ccc(NC(=O)CN)cc2)n1 :: low interval
5. NCC(=O)Nc1ccc(-n2nc(C(=O)NCc3ccccc3)cc2-c2ccc3ccc4ccccc4c3c2)cc1 :: middle interval
6. CC(C)NC(=O)c1cc(-c2ccc3ccc4ccccc4c3c2)n(-c2ccc(NC(=O)CN)cc2)n1 :: low interval
7. NCCC(=O)Nc1ccc(-n2nc(C(F)(F)F)cc2-c2ccc3ccc4ccccc4c3c2)cc1 :: low interval
8. NCCC(=O)Nc1ccc(-n2nc(CO)cc2-c2ccc3c(ccc4ccccc43)c2)cc1 :: high interval
9. Nc1ccc(-n2nc(CO)cc2-c2ccc3ccc4ccccc4c3c2)cc1 :: high interval
10. CNC(=O)c1cc(-c2ccc3ccc4ccccc4c3c2)n(-c2ccc(N)cc2)n1 :: high interval
11. NCC(=O)Nc1ccc(-n2nc(C(F)(F)F)cc2-c2ccc3c(ccc4ccccc43)c2)cc1 [OSU-03012, reference compound] :: low interval
12. NCC(=O)Nc1ccc(-n2nc(C(F)(F)F)cc2-c2ccc3ccc4ccccc4c3c2)cc1 :: high interval
13. CNC(=O)c1cc(-c2ccc3ccc4ccccc4c3c2)n(-c2ccc(NC(=O)CN)cc2)n1 :: middle interval

* * *

- Test system: PAK phosphorylation of Vimentin (Ser56)
- experiment-notes: Western blot, PAK phosphorylation of Vimentin (Ser56) in thyroid cancer cells
- Type: cell-based, Human
- protocol-conditions: Homo sapiens; cell-based assays; read-out: IC50 versus PAK, cell-based
Each entry below carries its reported IC50.
readout-kind: IC50

1. CC(C)NC(=O)c1cc(-c2ccc3ccc4ccccc4c3c2)n(-c2ccc(NC(=O)CN)cc2)n1 [Compound 15] :: ≤ 5 µM
2. NCCC(=O)Nc1ccc(-n2nc(C(F)(F)F)cc2-c2ccc3ccc4ccccc4c3c2)cc1 [Compound 4] :: ≤ 5 µM

* * *

- experimental-system: Recombinant active PAK 1 (Homo sapiens)
- Sequence (Q13153 whole entry): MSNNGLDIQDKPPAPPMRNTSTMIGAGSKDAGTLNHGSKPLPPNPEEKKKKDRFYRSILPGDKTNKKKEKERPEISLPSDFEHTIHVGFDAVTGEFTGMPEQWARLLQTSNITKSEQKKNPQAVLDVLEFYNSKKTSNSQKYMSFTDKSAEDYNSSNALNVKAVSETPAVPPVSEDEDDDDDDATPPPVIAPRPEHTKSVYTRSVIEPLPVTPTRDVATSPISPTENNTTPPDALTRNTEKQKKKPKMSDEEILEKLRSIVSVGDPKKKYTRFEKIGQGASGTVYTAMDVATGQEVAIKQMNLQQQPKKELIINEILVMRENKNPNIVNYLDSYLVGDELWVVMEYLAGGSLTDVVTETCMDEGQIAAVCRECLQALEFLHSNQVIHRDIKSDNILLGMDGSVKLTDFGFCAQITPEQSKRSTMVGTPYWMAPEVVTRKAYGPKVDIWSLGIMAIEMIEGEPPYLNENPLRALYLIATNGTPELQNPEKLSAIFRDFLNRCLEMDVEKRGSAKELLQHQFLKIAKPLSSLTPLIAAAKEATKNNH
- experiment-notes: In vitro PAK1 kinase assay (MBP substrate, 32P-ATP)
- protocol-conditions: in vitro kinase assay; read-out: IC50 versus PAK, in vitro (bound implied by chosen test concentration)
Each entry below carries its reported IC50.
readout-kind: IC50

1. NCC(=O)Nc1ccc(-n2nc(C(F)(F)F)cc2-c2ccc3c(ccc4ccccc43)c2)cc1 [OSU-03012, reference compound] :: < 7.5 µM
2. CC(C)NC(=O)c1cc(-c2ccc3ccc4ccccc4c3c2)n(-c2ccc(NC(=O)CN)cc2)n1 :: ≤ 5 µM
3. NCCC(=O)Nc1ccc(-n2nc(C(F)(F)F)cc2-c2ccc3ccc4ccccc4c3c2)cc1 :: ≤ 5 µM
